The measured values listed here are drawn from PubChem BioAssay.

- ASSAY_SYSTEM: Alpha-bungarotoxin (Bungarus multicinctus) (UniProt P60615)
- Sequence (P60615 whole entry, looked up): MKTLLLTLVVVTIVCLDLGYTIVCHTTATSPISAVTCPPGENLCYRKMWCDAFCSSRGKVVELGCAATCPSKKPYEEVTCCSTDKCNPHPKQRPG
- ASSAY_EXPLANATION: compounds binding labelled alpha-BTX control protein – biochemical, small-molecule microarray, Alexa647 label, 635/667 nm fluorescence, artefact control for SMM control protein annotation, profiling panel (AID 1117)
- CONDITION_SUMMARY: alpha-BTX-A647 binding fluorescence, higher = more signal
I'd be grateful if you could share measured composite z-score for these entries.
Numbers only.

>>> recorded_result("COC(=O)[C@@]1(Cc2ccc(F)cc2)[C@H]2c3cc(C(=O)N4CCCC4)n(Cc4cc(F)cc5c4OCOC5)c3C[C@H]2CN1C(=O)c1ccccc1")
0.92
>>> recorded_result("C=CC1c2cc(O)c(OC)cc2CCN1C (centres undefined)")
-0.383
>>> recorded_result("C=C(COC)C(=O)CC[C@@H](OC(C)=O)c1ccccc1OCCO")
0.0746

Let us examine a further case.
Qu. Record COc1ccc([Si](C)(C)[C@@H]2[C@@H](CC(=O)N3Cc4ccccc4C[C@H]3CO)O[C@]3(C(=O)N(Cc4cccc(N5CCOC5=O)c4)c4ccccc43)[C@H]2C)cc1 : what is its composite z-score with Alpha-bungarotoxin (Bungarus multicinctus) (UniProt P60615)?
Ans. 0.258
